Test system: astro (control astrocytes)
run-description: Drug repurposing screens with cells derived from glioblastoma tumor samples (AID 1345199); note: nearly all actives have a fitted effect of over 40% in size
settings: viability, ATP luminescence, 48 h; series mostly up to 45.9 µM
Inconclusive results are not listed. Calls of active or inactive are those of the source. Calls come from the whole dose curve; as a rule, active = well fitted inhibition curve with a large enough effect; inconclusive = small, poorly fitted or top-dose-only effect; inactive = flat fitted curve, though single readings scatter.

- line-notation: "C[C@@H]1C[C@H]2[C@@H]3CCC4=CC(=O)C=C[C@]4(C)[C@@]3(F)[C@@H](O)C[C@]2(C)[C@@]1(O)C(=O)COP(=O)(O)O"
  tgt: "astro"
  outcome: "inactive"
- line-notation: "CCC(=O)O[C@@H]1CC(=O)O[C@H](C)C/C=C/C=C/[C@H](O)[C@H](C)C[C@H](CC=O)[C@H](O[C@@H]2O[C@H](C)[C@@H](O[C@H]3C[C@@](C)(O)[C@@H](OC(=O)CC)[C@H](C)O3)[C@H](N(C)C)[C@H]2O)[C@H]1OC"
  tgt: "astro"
  outcome: "inactive"
- line-notation: "CC1(C)S[C@@H]2[C@H](NC(=O)[C@@H](NC(=O)N3CCNC3=O)c3ccccc3)C(=O)N2[C@H]1C(=O)O"
  tgt: "astro"
  outcome: "inactive"
